test: Aqueous solubility at pH 7.4 by pION method; assay type: physicochemical; conditions: aqueous, read-out: solubility
Measured Parameter: solubility

O=C(O)c1cc(-c2ccc(C34CCN(CC3)CC4)cc2)cc(-n2cc(-c3ccc(C(F)(F)F)cc3)nn2)c1 0.1 to 1.1 µg/mL

Would you kindly look at the next entry?
## Task Supply reported solubility belonging to this compound: O=C(O)c1cc(-c2ccc(C34CCN(CC3)CC4)cc2)c2ccc(-c3ccc(C(F)(F)F)cc3)cc2c1
## Result 0.44 to 0.55 µg/mL

----------
biological target: Cytochrome P450 2D6 (Homo sapiens)
Sequence (P10635 whole entry): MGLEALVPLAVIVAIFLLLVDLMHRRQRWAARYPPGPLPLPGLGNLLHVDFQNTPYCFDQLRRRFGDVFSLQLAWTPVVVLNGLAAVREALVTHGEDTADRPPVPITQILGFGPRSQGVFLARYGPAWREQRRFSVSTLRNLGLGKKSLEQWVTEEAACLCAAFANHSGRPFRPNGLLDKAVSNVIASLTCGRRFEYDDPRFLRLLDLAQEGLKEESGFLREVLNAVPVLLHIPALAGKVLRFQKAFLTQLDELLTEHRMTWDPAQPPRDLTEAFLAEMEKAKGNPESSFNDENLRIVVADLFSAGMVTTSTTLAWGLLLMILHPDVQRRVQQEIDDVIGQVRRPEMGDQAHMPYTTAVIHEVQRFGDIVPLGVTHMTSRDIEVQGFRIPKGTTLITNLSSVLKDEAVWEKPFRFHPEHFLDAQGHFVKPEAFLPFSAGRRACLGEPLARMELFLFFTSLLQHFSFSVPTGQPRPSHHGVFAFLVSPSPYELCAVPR
pIC50: −log10 of the molar value.
Measured Parameter: pIC50

## Task Supply reported pIC50 belonging to this compound: O=C(O)c1cc(-c2ccc(C34CCN(CC3)CC4)cc2)cc(-n2cc(-c3ccc(C(F)(F)F)cc3)nn2)c1
## Result < 4.52

----------
biological target: Cannabinoid receptor 2 (Homo sapiens); assay: Agonist activity at CB2 receptor (unknown origin)
Sequence (P34972 whole entry): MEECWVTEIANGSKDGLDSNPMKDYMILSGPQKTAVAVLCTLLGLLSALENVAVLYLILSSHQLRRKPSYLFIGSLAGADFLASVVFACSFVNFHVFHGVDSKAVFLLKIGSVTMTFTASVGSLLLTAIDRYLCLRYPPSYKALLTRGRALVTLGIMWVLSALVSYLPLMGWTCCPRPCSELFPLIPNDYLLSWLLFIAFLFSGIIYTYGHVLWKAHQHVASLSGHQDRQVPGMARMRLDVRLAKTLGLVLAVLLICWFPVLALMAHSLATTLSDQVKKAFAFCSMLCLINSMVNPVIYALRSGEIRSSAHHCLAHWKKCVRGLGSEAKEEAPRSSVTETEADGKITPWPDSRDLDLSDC
Measured Parameter: EC50

Molecule	EC50
O=C(O)c1cc(-c2ccc(C3CCNCC3)cc2)cc(-c2cn(-c3ccc(C(F)(F)F)cc3)nn2)c1	> 10 µM

Would you kindly look at the next entry?
## Task Supply reported EC50 belonging to this molecule: O=C(O)c1cc(-c2ccc(C3CCNCC3)cc2)c2ccc(-c3ccc(C(F)(F)F)cc3)cc2c1 [PPTN]
## Result > 10 µM

----------
molecular target: Delta-type opioid receptor (Homo sapiens, UniProt P41143); experiment: Binding affinity to DOR (unknown origin)
Sequence (P41143 whole entry): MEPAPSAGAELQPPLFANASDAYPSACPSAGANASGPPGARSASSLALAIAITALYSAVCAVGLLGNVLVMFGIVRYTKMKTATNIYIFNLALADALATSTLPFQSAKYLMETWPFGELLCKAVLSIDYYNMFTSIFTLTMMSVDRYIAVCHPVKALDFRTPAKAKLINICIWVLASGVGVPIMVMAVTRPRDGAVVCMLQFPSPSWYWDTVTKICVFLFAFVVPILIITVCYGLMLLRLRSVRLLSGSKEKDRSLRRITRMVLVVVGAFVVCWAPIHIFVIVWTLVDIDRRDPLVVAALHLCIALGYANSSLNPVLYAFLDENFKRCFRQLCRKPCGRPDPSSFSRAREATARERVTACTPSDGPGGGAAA
Form field: Ki (one value per entry).
Response body: numeric value in nM, unit text excluded.

Compound	Tested System	Ki (nM)
O=C(O)c1cc(-c2ccc(C3CCNCC3)cc2)cc(-c2cn(-c3ccc(C(F)(F)F)cc3)nn2)c1	Delta-type opioid receptor (Homo sapiens, UniProt P41143)	3790
O=C(O)c1cc(-c2ccc(C34CCNCC3C4)cc2)cc(-n2cc(-c3ccc(C(F)(F)F)cc3)nn2)c1 (stereo not drawn)	Delta-type opioid receptor (Homo sapiens, UniProt P41143)	2630

Would you kindly look at the next entry?
## Task Supply reported Ki belonging to this compound: NC(=O)c1ccc(-c2cc(C(=O)O)cc(-c3cn(-c4ccc(C(F)(F)F)cc4)nn3)c2)cc1
## Result 2480

----------
molecular target: Translocator protein (Homo sapiens)
Sequence (P30536 whole entry): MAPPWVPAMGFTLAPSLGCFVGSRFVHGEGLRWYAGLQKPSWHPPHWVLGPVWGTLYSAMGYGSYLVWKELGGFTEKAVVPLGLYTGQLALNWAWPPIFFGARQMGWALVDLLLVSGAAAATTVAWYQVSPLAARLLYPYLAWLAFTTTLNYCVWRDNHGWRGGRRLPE
Measured Parameter: Ki (nM)
Response body: numeric value in nM, unit text excluded.

## Task For Translocator protein (Homo sapiens), give Ki of the listed compound: CC(=O)N1CCC(c2ccc(-c3cc(C(=O)O)cc4cc(-c5ccc(C(F)(F)F)cc5)ccc34)cc2)CC1
## Result 510

----------
target: Cytochrome P450 2C19 (Homo sapiens)
Sequence (P33261 whole entry): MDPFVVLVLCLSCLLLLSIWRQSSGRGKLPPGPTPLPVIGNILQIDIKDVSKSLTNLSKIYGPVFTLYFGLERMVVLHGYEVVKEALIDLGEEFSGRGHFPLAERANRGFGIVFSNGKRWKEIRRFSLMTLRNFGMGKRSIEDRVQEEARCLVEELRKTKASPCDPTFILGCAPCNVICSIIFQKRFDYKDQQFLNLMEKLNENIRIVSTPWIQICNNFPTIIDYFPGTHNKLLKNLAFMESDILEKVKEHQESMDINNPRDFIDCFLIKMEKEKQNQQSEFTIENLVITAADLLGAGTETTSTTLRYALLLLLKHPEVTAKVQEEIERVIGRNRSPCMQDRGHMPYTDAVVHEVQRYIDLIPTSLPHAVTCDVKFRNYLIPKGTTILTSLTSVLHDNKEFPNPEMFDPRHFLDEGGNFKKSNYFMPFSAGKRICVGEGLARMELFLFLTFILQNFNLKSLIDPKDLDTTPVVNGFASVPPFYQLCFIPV
Measured Parameter: IC50

## Task For Cytochrome P450 2C19 (Homo sapiens), give IC50 of the listed molecule: O=C(O)c1cc(-c2ccc(C34CCN(CC3)CC4)cc2)cc(-n2cc(-c3ccc(C(F)(F)F)cc3)nn2)c1
## Result > 30 µM

----------
experiment: Half life in rat at 0.5 mg/kg, iv; type: ADME, organism-based; conditions: in vivo
Measured Parameter: half-life (h)
Response body: numeric value in h, unit text excluded.

O=C(O)c1cc(-c2ccc(C34CCN(CC3)CC4)cc2)cc(-n2cc(-c3ccc(C(F)(F)F)cc3)nn2)c1 0.72

Would you kindly look at the next entry?
## Task Supply reported half-life belonging to this compound: O=C(O)c1cc(-c2ccc(C34CCN(CC3)CC4)cc2)c2ccc(-c3ccc(C(F)(F)F)cc3)cc2c1
## Result 3.46

src = ChEMBL document CHEMBL4619807
